Value source: BindingDB's records for doi:10.1016/s0960-894x(99)00360-1

# TGT: Dimer of Gag-Pol polyprotein [489-587] (Human immunodeficiency virus 1, UniProt P12497)
# Construct: 489-587
# ASSAY: Protease Inhibition Assay
# TEST_CONTEXT: pH 6.2; 37 °C
# Protocol: For determination of IC50 values, HIV-1 protease was added to assay buffer containing inhibitor and the substrate (H-His-Lys-Ala-Arg-Val-Leu- (p-NO2) Phe-Glu-Ala-norleucine-Ser-NH2). The Leu- (p-NO2) Phe bond of the substrate was cleaved by the enzyme, and the substrate and products were separated by reversed-phase HPLC. Absorbance was measured at 220 nm, peak areas were determined, and percentage conversion to product was calculated.
ENDPOINT_LABEL: pIC50
Scale: negative log10 of molar concentration, which is what pIC50 denotes.

>>> recorded_measurement("CCNS(=O)(=O)Oc1cc(C(C)(C)C)c(SC2C(=O)CC(CCc3ccc(N)cc3)(C(C)C)OC2=O)cc1C (centres undefined)")
8.37

Looking up Cc1cc(SC2C(=O)CC(C)(CCc3ccc(O)cc3)OC2=O)c(C(C)(C)C)cc1OS(=O)(=O)N1CCN(C)CC1 (centres undefined) , I see its pIC50 listed as 8.15

According to the records, this compound Cc1cc(SC2C(=O)CC(CCc3ccccc3)(C(C)C)OC2=O)c(C(C)(C)C)cc1OS(=O)(=O)N1CCN(C)CC1 (centres undefined) displays pIC50 of 8.41

For reference, reported pIC50 for Cc1cc(SC2C(=O)CC(CCc3ccc(O)cc3)(C(C)C)OC2=O)c(C(C)(C)C)cc1OS(=O)(=O)N(C)C (centres undefined) [6-Alkyl-5,6-Dihydropyran-2-one 22] stands at 8.47

====

Parameter pIC50: see the listing below.
# TGT: Dimer of Gag-Pol polyprotein [489-587] (Human immunodeficiency virus 1, UniProt P12497)
# Construct: 489-587
# ASSAY: Protease Inhibition Assay
# TEST_CONTEXT: pH 6.2; 37 °C
By convention, pIC50 is the negative base-10 log of a molar concentration.

Before answering, review these 4 worked examples.
>>> recorded_measurement("Cc1cc(SC2C(=O)CC(C)(CCc3ccc(O)cc3)OC2=O)c(C(C)(C)C)cc1OS(=O)(=O)N(C)C (configuration not stated)")
8.80
>>> recorded_measurement("CCNS(=O)(=O)Oc1cc(C(C)(C)C)c(SC2C(=O)CC(C)(CCc3ccc(O)cc3)OC2=O)cc1C (configuration not stated)")
8.64
>>> recorded_measurement("Cc1cc(SC2C(=O)CC(C)(CCc3ccc(O)cc3)OC2=O)c(C(C)(C)C)cc1OS(N)(=O)=O (configuration not stated)")
8.74
>>> recorded_measurement("CCNS(=O)(=O)Oc1cc(C(C)(C)C)c(SC2C(=O)CC(CCc3ccc(O)cc3)(C3CCCCC3)OC2=O)cc1C (configuration not stated)")
8.32

Moving on to the next compound.
For this compound ( Cc1cc(SC2C(=O)CC(CCc3ccc(O)cc3)(C(C)C)OC2=O)c(C(C)(C)C)cc1OS(=O)(=O)N1CCOCC1 (configuration not stated) ), measured pIC50 is 8.59

====

# TGT: Dimer of Gag-Pol polyprotein [489-587] (Human immunodeficiency virus 1, UniProt P12497)
# Construct: 489-587
# ASSAY: Protease Inhibition Assay
# TEST_CONTEXT: pH 6.2; 37 °C
Rule for this label: TRUE means IC50 is less than 5 nM; FALSE means IC50 is at least 5 nM.

Observe how each entry below is paired with its result.
>>> class("Cc1cc(SC2C(=O)CC(CCc3ccc(N)cc3)(C(C)C)OC2=O)c(C(C)(C)C)cc1OS(=O)(=O)N1CCN(C)CC1 (configuration not stated)")
"TRUE"
>>> class("Cc1cc(SC2C(=O)CC(CCc3ccc(O)cc3)(C3CCCCC3)OC2=O)c(C(C)(C)C)cc1OS(=O)(=O)N1CCN(C)CC1 (configuration not stated)")
"FALSE"
>>> class("CCNS(=O)(=O)Oc1cc(C(C)(C)C)c(SC2C(=O)CC(CCc3ccc(O)cc3)(c3ccccc3)OC2=O)cc1C (configuration not stated)")
"FALSE"

[Q] Does the reported IC50 of CNS(=O)(=O)Oc1cc(C(C)(C)C)c(SC2C(=O)CC(CCc3ccc(O)cc3)(C(C)C)OC2=O)cc1C (configuration not stated) stay below 5 nM?
[A] TRUE

[Q] In the record for Cc1cc(SC2C(=O)CC(CCc3ccc(O)cc3)(C3CCCCC3)OC2=O)c(C(C)(C)C)cc1OS(=O)(=O)N(C)C (configuration not stated) , is IC50 less than 5 nM?
[A] FALSE

[Q] I wonder whether Cc1cc(SC2C(=O)CC(CCc3ccc(N)cc3)(C(C)C)OC2=O)c(C(C)(C)C)cc1OS(=O)(=O)N(C)C (configuration not stated) has IC50 below 5 nM. Can you tell?
[A] TRUE

[Q] Is IC50 strictly under 5 nM for the entry Cc1cc(SC2C(=O)CC(C)(CCc3ccc(O)cc3)OC2=O)c(C(C)(C)C)cc1O (configuration not stated) [6-Alkyl-5,6-Dihydropyran-2-one 13] ?
[A] FALSE

[Q] Determine if Cc1cc(SC2C(=O)CC(CCc3ccc(O)cc3)(C(C)C)OC2=O)c(C(C)(C)C)cc1OS(=O)(=O)N1CCN(C)CC1 (configuration not stated) shows IC50 strictly lower than 5 nM.
[A] TRUE

[Q] Report whether reported IC50 is lower than 5 nM (strictly) for CCCNS(=O)(=O)Oc1cc(C(C)(C)C)c(SC2C(=O)CC(C)(CCc3ccc(O)cc3)OC2=O)cc1C (configuration not stated)
[A] FALSE

[Q] Criterion: IC50 strictly below 5 nM. Is it met by CCCNS(=O)(=O)Oc1cc(C(C)(C)C)c(SC2C(=O)CC(CCc3ccc(O)cc3)(C(C)C)OC2=O)cc1C (configuration not stated) ?
[A] TRUE

[Q] # check: IC50 < 5 nM for CCNS(=O)(=O)Oc1cc(C(C)(C)C)c(SC2C(=O)CC(CCc3ccccc3)(C(C)C)OC2=O)cc1C (configuration not stated)
[A] FALSE
